As shown below, each of these compounds has a reported inhibition at 10 µM value.
Target: human S1P3 receptor (Homo sapiens, UniProt Q99500)
Construct: expressed in transfected cells
Sequence (Q99500 whole entry): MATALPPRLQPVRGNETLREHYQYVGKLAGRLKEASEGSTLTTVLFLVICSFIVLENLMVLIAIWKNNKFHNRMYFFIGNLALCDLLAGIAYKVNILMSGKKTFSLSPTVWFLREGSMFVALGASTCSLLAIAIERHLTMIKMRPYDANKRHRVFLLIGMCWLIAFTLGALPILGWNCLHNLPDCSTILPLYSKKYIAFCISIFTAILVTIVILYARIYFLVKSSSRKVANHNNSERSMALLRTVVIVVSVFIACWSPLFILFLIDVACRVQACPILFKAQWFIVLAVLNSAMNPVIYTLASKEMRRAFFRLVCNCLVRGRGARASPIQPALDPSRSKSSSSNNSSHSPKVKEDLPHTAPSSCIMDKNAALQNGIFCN
Assay: FLIPR assay in T24 cells stably expressing the human S1P3 receptor
Type: cell-based
Details: T-24; percent of activity induced by 5 nM sphingosine-1-phosphate inhibited at highest dose tested (10 μM); read-out: S1P3 percent inhibition (in parenthesis)
observed property: inhibition at 10 µM (%)

>>> print(df.to_string())
                                 chem_smiles  units  experimental_result
 0  Cc1ccc(-c2ccc(COCCCP(=O)(O)O)nc2-c2ccccc2)cc1      %                   11
 1  CCc1ccc(-c2ccc(CNCCCP(=O)(O)O)nc2-c2ccncc2)cc1      %                   95
 2  CCc1ccc(-c2ccc(CNCCP(=O)(O)O)nc2-c2ccccc2)cc1      %                   99
 3  CCc1ccc(-c2ccc(COCCCP(=O)(O)O)nc2-c2ccccc2)cc1      %                   27
 4  O=P(O)(O)CCCNCc1ccc(-c2ccc(C(F)(F)F)cc2)c(-c2ccccc2)n1      %                   95
 5  CCc1ccc(-c2ccc(CNCCP(=O)(O)O)nc2-c2ccncc2)cc1      %                   68
 6  Cc1ccc(-c2ccc(CNCCCP(=O)(O)O)nc2-c2ccccc2)cc1      %                   98
 7  O=P(O)(O)CCCNCc1ccc(-c2ccccc2)c(-c2ccccc2)n1      %                   83
 8  CCc1ccc(-c2ccc(CNCCCCP(=O)(O)O)nc2-c2ccccc2)cc1      %                   30
 9  CCCc1ccc(-c2ccc(CNCCCP(=O)(O)O)nc2-c2ccccc2)cc1      %                   98
10  CCc1ccc(-c2ccc(CNCCCP(=O)(O)O)nc2-c2ccccc2)cc1      %                   98
